Please respond with reported EC50 for every item in the list.
# subject of test: Beta-3 adrenergic receptor (Homo sapiens)
# Sequence (P13945 whole entry): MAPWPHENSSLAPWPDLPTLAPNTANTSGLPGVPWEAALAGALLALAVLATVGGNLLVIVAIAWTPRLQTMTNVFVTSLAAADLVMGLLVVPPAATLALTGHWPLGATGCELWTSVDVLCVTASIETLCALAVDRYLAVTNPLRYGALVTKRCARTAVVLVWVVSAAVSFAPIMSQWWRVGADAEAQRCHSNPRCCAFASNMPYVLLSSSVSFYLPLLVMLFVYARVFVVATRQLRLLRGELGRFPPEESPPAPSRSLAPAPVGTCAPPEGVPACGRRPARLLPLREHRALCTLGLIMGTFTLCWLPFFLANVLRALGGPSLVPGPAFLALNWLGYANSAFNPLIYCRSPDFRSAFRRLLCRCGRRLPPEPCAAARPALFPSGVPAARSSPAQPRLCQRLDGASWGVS
# test summary: In vitro effective concentration against beta-3 adrenergic receptor.
# number only, unit nM dropped from output

Using the record for CCCCCCCCN1CNN(c2ccc(S(=O)(=O)Nc3ccc(CCNC[C@H](O)c4cccnc4)cc3)cc2)C1=O , report its EC50.
5.4

Follow-up entry: CCCCCCCCN1NCN(c2ccc(S(=O)(=O)Nc3ccc(CCNC[C@H](O)c4cccnc4)cc3)cc2)C1=O
15
